Collected TGI values appear next to each entry.
- Tested on: SW-620 colon
- protocol.details: NCI tumour cell line growth inhibition, 48 h

INSERT INTO measurements (molecule, measured_result) VALUES
  ('CCOP(=O)(Cc1ccc(CP(=O)(OCC)OCC)n1C)OCC', '> 100 µM');

As a next step, examine the molecule that follows.
[Q] What value of TGI has been reported for the following molecule? `COc1ccc(N=C2SC(=N/N=c3\sc4ccccc4n3C)SC2=Nc2ccc(OC)cc2)cc1`
[A] > 100 µM

###

- Tested on: KM12 colon
- protocol.details: NCI tumour cell line growth inhibition, 48 h
Listed next: entries and their corresponding TGI.

INSERT INTO assay_data (molecule, experimental_target, assay_readout, measured_result) VALUES
  ('COc1ccc(C2S/C(=C\c3ccccc3O)C(=O)N2NC(=O)Cc2ccccc2)cc1 (stereo not given)', 'KM12 colon', 'TGI', '> 100 µM'),
  ('CC(C)(C)OC(=O)NCC(O)CNC(=O)OC(C)(C)C', 'KM12 colon', 'TGI', '> 100 µM'),
  ('O=Cc1ccc2c(c1)CC1(C2)Cc2ccc3c(c2C1)CCC3 (stereo not given)', 'KM12 colon', 'TGI', '33.1 µM'),
  ('CCOC(=O)C1=CC(C)(C(=O)OCC)Nc2c(nc(OC)n(C)c2=O)N1 (stereo not given)', 'KM12 colon', 'TGI', '> 10 µM');

Turning now to a further molecule:
[Q] # get_value(readout= TGI, system= KM12 colon) for CCOC(=O)C1=C(C)N(C)C23OC4(C(=O)OC)CC2c2ccccc2C1N3C4=O (stereo not given)
[A] > 100 µM

###

- System: NCI-H460 lung
- protocol.details: NCI tumour cell line growth inhibition, 48 h
assay.readout: TGI

Consider the worked cases shown below.
INSERT INTO assay_data (molecule, measured_result) VALUES
  ('S=C(c1c[nH]c2ccccc12)N1CCOCC1', '> 100 µM'),
  ('COC(=O)C(C(=O)C(=O)Nc1cccc(OC)c1)c1cnc2ccccc2n1 (stereo unspecified)', '> 100 µM'),
  ('Cc1c2cccnc2c(C)c2c1c1cc(CO)ccc1n2C', '6.12 µM'),
  ('O=C1CCCC/C(=C/c2ccccc2)N1', '> 100 µM'),
  ('O=C(OCc1ccc2cccc(O)c2n1)N1CCN(C(=O)c2cc3cc(F)ccc3[nH]2)CC1', '3.64 µM');

[Q] Which TGI is reported for this molecule? `O=C1N=c2ccccc2=C1c1c(O)[nH]c2ccccc12`
[A] 59.3 µM

[Q] Fill blank: measured TGI of the molecule CNC(=S)NC1CCCCC1NC(=S)NC (stereo unspecified) is ____.
[A] > 100 µM

[Q] Looking for the measured TGI of `CCN(CC)c1c(N(CC)CC)c(=O)c1=O` , can you help?
[A] > 78.2 µM

###

Entries annotated with measured TGI
- Tested on: UACC-257 melanoma
- protocol.details: NCI tumour cell line growth inhibition, 48 h

INSERT INTO results (molecule, measured_result) VALUES
  ('Cc1ccc(C(SCC(N)C(=O)O)(c2ccccc2)c2ccc(C)cc2)cc1 (stereo not given)', '> 56.8 µM'),
  ('CCCCCN=Cc1c(O)c(O)c(C(C)C)c2cc(C)c(-c3c(C)cc4c(C(C)C)c(O)c(O)c(C=NCCCCC)c4c3O)c(O)c12', '46.2 µM'),
  ('COc1cc(C2c3cc4c(cc3OC(N3CCCC3)C2C)OCO4)cc(OC)c1O (stereo not given)', '> 100 µM'),
  ('O=NN(CCCl)C(=O)NC1CCSc2ccccc21 (stereo not given)', '> 100 µM');

[Q] Can you look up TGI on UACC-257 melanoma for `CNCCNc1c2c(c(NCCNC)c3c(CN(C)C)c[nH]c13)C(=O)c1ccccc1C2=O` ?
[A] 45.7 µM

[Q] Observed TGI on UACC-257 melanoma for `CC(C)(C)OC(=O)NCC(=O)OCc1ccccc1` , please.
[A] > 100 µM

[Q] Param readout= TGI; system= UACC-257 melanoma; entry= Cc1cc(=O)[nH]c(NN2C(Cl)C(=O)C2c2cccc(O)c2)n1 (stereo not given) ; returns value.
[A] > 100 µM

[Q] What measured TGI is associated with COc1ccc2c(c1)CCC1C2CC[C@@]2(C)C1CC1=CC(COC(C)=O)C3C(=O)c4ccccc4C(=O)C3C12 (stereo not given in full) on UACC-257 melanoma?
[A] > 100 µM

[Q] Find the measured TGI: item CC1=Nc2ccccc2C1C(Cc1ccccc1N)c1c(C)[nH]c2ccccc12 (stereo not given) , target or system UACC-257 melanoma.
[A] 32.4 µM

[Q] Lookup: TGI / UACC-257 melanoma / `O=C(O/N=C1/CCCC/C1=C\c1ccccc1)c1ccccc1`
[A] > 100 µM
